# Assay overview: Dog plasma stability
# Assay type: in vitro ADME
# Measurement setup: substrate 2 μM, read-out: Dog Plasma T½

# Sample smiles, Unit label, half-life at 2 μM
data = [
    ("Cn1ccc2c([C@@H](c3cn(C45CC(C4)C5)nn3)N(C(=O)OCOP(=O)(O)O)c3cc(Cl)c4ncc(C#N)c(NCC(C)(C)C)c4c3)cccc2c1=O", "h", 4.63),
    ("C[C@H](N)C(=O)OCOC(=O)N(c1cc(Cl)c2ncc(C#N)c(NCC(C)(C)C)c2c1)[C@H](c1cn(C23CC(C2)C3)nn1)c1cccc2c(=O)n(C)ccc12", "h", 0.05),
]
